Data provenance: ChEMBL document CHEMBL6092172

test system: Plasmodium falciparum; assay: Effect on oxygen consumption rate in Plasmodium falciparum infected with human RBC at 5 uM in presence of TMPD by Seahorse XFe24 analyzer; type: functional, organism-based
The source made the active and inactive calls. The rule behind the calls is not given here.
REPORTED_PROPERTY: Activity

Request: Field request: Activity | item: O=C1C(O)=C([C@H]2CC[C@H](c3ccc(Cl)cc3)CC2)C(=O)c2ccccc21 [ATOVAQUONE]
Response: inactive

Request: Would you mind doing O=C(NC1CC1)c1ccc(CN(Cc2ccc(Cl)cc2Cl)C2CC2)cc1 as well?
Response: inactive

Request: Would you mind doing CNC(=O)c1ccc(CN(C2CC2)S(=O)(=O)c2c(C)cc(C)cc2C)cc1 as well?
Response: inactive

Request: Would you mind doing Cc1cc(Nc2ccc(S(F)(F)(F)(F)F)cc2)n2nc(C(C)(F)F)nc2n1 [DSM-265] as well?
Response: inactive
